# system_name: recombinant human SYK360-635 (Homo sapiens, UniProt P43405)
# Construct: made in house
# protocol_description: Determination of IC50 of Spleen Tyrosine Kinase (SYK) inhibition, 33P ATP filtration assay
# Type: biochemical
# stated_conditions: SYK aa 360-635 0.5 nM; ATP 20 μM, peptide 5 μM, 0.1% BSA; read-out: SYK_ENZYME_FILTRATION/v1, BSA
metric: IC50 (nM)

Cn1nc(-c2cnc3[nH]cc(C(=O)NCCN)c3n2)c2ccc(Cl)cc21; 54.9

(1) CC(C)(C)NC(=O)c1c[nH]c2ncc(-n3nc(Cl)c4ccccc43)nc12
(2) CC(C)(C)NC(=O)c1c[nH]c2ncc(-c3nn(CCCN4CCC(F)(F)C4)c4ccc(OC(F)F)cc34)nc12
Task: Which record shows the lower IC50: the first, 1 , or the second, 2 ? State your choice using its label.
Output: 2

(1) Cc1ccc2c(-c3cnc4[nH]cc(C(=O)NC(C)(C)CO)c4n3)nn(CCN(C)C)c2c1
(2) COC[C@H](C)NC(=O)c1c[nH]c2ncc(-c3nn(CCN4CCCC4)c4cc(F)ccc34)nc12
Task: Which record shows the lower IC50: the first, 1 , or the second, 2 ? State your choice using its label.
Output: 1
(1: 57.4 nM, 2: 209 nM)

(1) Cn1nc(-c2cnc3[nH]cc(C(=O)N[C@@H]4CCCN(CC(F)(F)F)C4)c3n2)c2ccc(Cl)cc21
(2) Cn1nc(-c2cnc3[nH]cc(C(=O)NC(C)(C)C(C)(C)N)c3n2)c2ccc(F)cc21
(3) CNCCCn1nc(-c2cnc3[nH]cc(C(=O)NC(C)(C)C)c3n2)c2cc(OC(F)F)ccc21
Task: Order the entries by their reported IC50, beginning at the minimum. Provide your answer as the labels ordered per the instruction.
Output: 3, 2, 1
(3: 5.12 nM, 2: 492 nM, 1: 3710 nM)

====

# system_name: JAK3: Recombinant human kinase domain (Homo sapiens)
# Construct: JAK3: Recombinant human kinase domain from Millipore (Cat #14-629) or prepared
# protocol_description: Determination of IC50 of Janus Kinase (JAK) inhibition, radioactive end-point 33P-ATP assay, JAK3
# stated_conditions: ATP 1.5 uM, peptide 50 uM, 20 minutes, read-out: JAK3-INHIB-DR/v1~NO ADDITIVE~Enzyme_Conc = 100
metric: IC50 (nM)

COC[C@@H](NC(=O)c1c[nH]c2ncc(-c3nn(C)c4cc(F)ccc34)nc12)[C@@H](C)O; 80.9
C[C@@H](NC(=O)c1c[nH]c2ncc(-c3nn(CC#N)c4cc(Cl)ccc34)nc12)C(=O)N1CC(C#N)C1; 0.775
CC(NC(=O)c1c[nH]c2ncc(-c3nn(C)c4cc(F)ccc34)nc12)c1ncco1 (stereo not shown); 5.66
Cn1nc(-c2cnc3[nH]cc(C(=O)N[C@@H](C(=O)N4CCC(C#N)CC4)C4CC4)c3n2)c2cc(Cl)c(Cl)cc21; 0.48
COC[C@H](CCS(C)(=O)=O)NC(=O)c1c[nH]c2ncc(-c3nn(C)c4cc(F)ccc34)nc12; 1.88

(A) CC(NC(=O)c1c[nH]c2ncc(-c3nn(C)c4cc(F)ccc34)nc12)[C@H]1C[C@H](C#N)C1 (stereo partly shown)
(B) Cn1nc(-c2cnc3[nH]cc(C(=O)N[C@H]4CC[C@@H](N)CC4)c3n2)c2ccc(Cl)cc21
Task: Between these two entries, A and B , state which has the higher IC50. State your choice using its label.
Output: B

====

# system_name: JAK3: Recombinant human kinase domain (Homo sapiens, UniProt P52333)
# Construct: JAK3: Recombinant human kinase domain from Millipore (Cat #14-629) or prepared
# Sequence (P52333 822-1111 limits assumed): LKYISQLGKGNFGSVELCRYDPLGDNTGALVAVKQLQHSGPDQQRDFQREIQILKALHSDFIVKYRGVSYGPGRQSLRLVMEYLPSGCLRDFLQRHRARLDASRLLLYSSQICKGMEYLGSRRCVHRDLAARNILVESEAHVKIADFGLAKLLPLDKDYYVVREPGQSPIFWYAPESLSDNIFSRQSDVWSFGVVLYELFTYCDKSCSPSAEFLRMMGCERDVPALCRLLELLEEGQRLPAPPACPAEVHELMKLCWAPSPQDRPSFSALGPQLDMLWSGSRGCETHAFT
# protocol_description: Determination of IC50 of Janus Kinase (JAK) inhibition, radioactive end-point 33P-ATP assay, JAK3
# stated_conditions: ATP 1.5 uM, peptide 50 uM, 20 minutes, read-out: JAK3-INHIB-DR/v1~NO ADDITIVE~Enzyme_Conc = 100
pIC50: −log10 of the molar value.
metric: pIC50

CC(C)NC(=O)c1c[nH]c2ncc(-c3nn(C)c4cc(Cl)cc(F)c34)nc12; 7.96

(a) Cn1nc(-c2cnc3[nH]cc(C(=O)N[C@@H]4CCCN(CC(F)(F)F)C4)c3n2)c2ccc(Cl)cc21
(b) COc1ccc2c(-c3cnc4[nH]cc(C(=O)NC(C)(C)CO)c4n3)nn(C)c2c1
Task: Which record shows the lower pIC50: the first, a , or the second, b ? State your choice using its label.
Output: a
(a: 6.93, b: 7.23)

====

# system_name: recombinant human SYK360-635 (Homo sapiens, UniProt P43405)
# Construct: made in house
# protocol_description: Determination of IC50 of Spleen Tyrosine Kinase (SYK) inhibition, 33P ATP filtration assay
# Format: biochemical
# stated_conditions: SYK aa 360-635 0.5 nM; ATP 20 μM, peptide 5 μM, 0.1% BSA; read-out: SYK_ENZYME_FILTRATION/v1, BSA
pIC50: −log10 of the molar value.
metric: pIC50

Examples with their reported pIC50 follow.
CCc1cccc2c(-c3cnc4[nH]cc(C(=O)NC(C)(C)C)c4n3)n[nH]c12 [Example I-355]; 8.50
CC(O)CCn1nc(-c2cnc3[nH]cc(C(=O)NC(C)(C)CO)c3n2)c2ccc(F)cc21 (centres unmarked) [Example I-462]; 7.75
CC(C)NC(=O)c1c[nH]c2ncc(-c3nn(C)c4c3CCC4)nc12 [Example I-282]; 7.50
Cn1nc(-c2cnc3[nH]cc(C(=O)N[C@@H]4CCc5ccccc54)c3n2)c2ccc(Cl)cc21 [Example I-157]; 6.38
CC(C)NC(=O)c1c[nH]c2ncc(-c3nn(C)c4ccc(C5CC5)cc34)nc12 [Example I-195]; 7.92

(P) Cn1nc(-c2cnc3[nH]cc(C(=O)NC(C)(C)c4ccccc4)c3n2)c2ccc(Cl)cc21 [Example I-388]
(Q) CC(NC(=O)c1c[nH]c2ncc(-c3nn(CCN4CCOCC4)c4cc(F)ccc34)nc12)c1ccncc1 (centres unmarked) [Example I-248]
Task: Which record shows the lower pIC50: the first, P , or the second, Q ? State your choice using its label.
Output: Q
(Q: 6.29, P: 7.20)

====

# system_name: JAK3: Recombinant human kinase domain (Homo sapiens)
# Construct: JAK3: Recombinant human kinase domain from Millipore (Cat #14-629) or prepared
# protocol_description: Determination of IC50 of Janus Kinase (JAK) inhibition, radioactive end-point 33P-ATP assay, JAK3
# stated_conditions: ATP 1.5 uM, peptide 50 uM, 20 minutes, read-out: JAK3-INHIB-DR/v1~NO ADDITIVE~Enzyme_Conc = 100
pIC50: −log10 of the molar value.
metric: pIC50

Cn1nc(-c2cnc3[nH]cc(C(=O)N[C@H]4CCC[C@H](C(N)=O)C4)c3n2)c2ccc(Cl)cc21 (relative stereo) [Example I-155]; 7.11

(1) CCOC[C@H](C)NC(=O)c1c[nH]c2ncc(-c3nn(C)c4cc(Cl)ccc34)nc12 [Example I-171]
(2) Cn1nc(-c2cnc3[nH]cc(C(=O)N[C@@H]4CCN(Cc5ccccc5)C4)c3n2)c2ccc(F)cc21 [Example I-213]
(3) CC(C)CC(C)NC(=O)c1c[nH]c2ncc(-c3nn(C)c4cc(F)ccc34)nc12 (stereo not shown) [Example I-187]
Task: Order the entries by their reported pIC50, beginning at the minimum. Provide your answer as the labels ordered per the instruction.
Output: 2, 3, 1

====

# system_name: recombinant human SYK360-635 (Homo sapiens)
# Construct: made in house
# protocol_description: Determination of IC50 of Spleen Tyrosine Kinase (SYK) inhibition, 33P ATP filtration assay
# Assay type: biochemical
# stated_conditions: SYK aa 360-635 0.5 nM; ATP 20 μM, peptide 5 μM, 0.1% BSA; read-out: SYK_ENZYME_FILTRATION/v1, BSA
metric: IC50 (µM)

Examples with their reported IC50 follow.
Cn1nc(-c2cnc3[nH]cc(C(=O)NC4(C)CC4)c3n2)c2ccc(Cl)cc21; 0.00228
C[C@H](O)[C@H](C)NC(=O)c1c[nH]c2ncc(-c3nn(C)c4cc(Cl)ccc34)nc12 (relative stereo); 0.00757
Cc1ccc2c(-c3cnc4[nH]cc(C(=O)NC(C)(C)CN(C)C)c4n3)nn(C)c2c1; 1.36

(A) C[C@@H](NC(=O)c1c[nH]c2ncc(-c3nn(C)c4cc(F)ccc34)nc12)c1ccccn1
(B) CC(Cc1ccccc1)NC(=O)c1c[nH]c2ncc(-c3nn(C)c4cc(Cl)ccc34)nc12 (stereo not shown)
Task: Which record shows the lower IC50: the first, A , or the second, B ? State your choice using its label.
Output: A

(P) Cn1nc(-c2cnc3[nH]cc(C(=O)NC(C)(C)C)c3n2)c2cc(S(C)(=O)=O)ccc21
(Q) CC(C)NC(=O)c1c[nH]c2ncc(-c3nn(CCCN(C)C)c4cc(Cl)cc(F)c34)nc12
Task: Which record shows the lower IC50: the first, P , or the second, Q ? State your choice using its label.
Output: Q

(a) CC(NC(=O)c1c[nH]c2ncc(-c3nn(CCN4CCOCC4)c4cc(Cl)ccc34)nc12)c1cccnc1 (stereo not shown)
(b) Cc1ccc2c(-c3cnc4[nH]cc(C(=O)NC5(CO)CC5)c4n3)nn(C)c2c1
Task: Between these two entries, a and b , state which has the higher IC50. State your choice using its label.
Output: a

(P) Cc1ccc2c(-c3cnc4[nH]cc(C(=O)NC5(C#N)CC5)c4n3)n[nH]c2c1
(Q) Cn1nc(-c2cnc3[nH]cc(C(=O)NC(C)(C)C)c3n2)c2c1CCCCC2
Task: Between these two entries, P and Q , state which has the higher IC50. State your choice using its label.
Output: Q
(Q: 0.0753 µM, P: 0.00395 µM)
